// data source = the supplement of paper PMC10567573

B1: RSPH3 (parent)
chain: FIPAKTGKDVATQILEGELFDFDL

- Variants of: B1
- Protocol Summary: protein stability index of a GFP-peptide fusion (GPS, HEK-293T) (PSI 1-6); higher = more stable;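 also: lentivirally expressed fusions sorted by FACS into six bins by GFP to DsRed ratio, PSI derived from sequencing read proportions per bin multiplied by bin number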
- Condition Description: c terminus: a fixed tail appended
Endpoint Label: protein stability index

| Mutation Notation | protein stability index |
| --- | --- |
| A4L | 2.09 |
| P3H | 1.85 |
| D9G | 2.23 |
| F20E | 2.6 |

Inquiry: May I ask what protein stability index has been recorded for G7F ?
Reply text: 1.45

Inquiry: Record: K5S
Reply text: 2.01

Inquiry: Record: G7C
Reply text: 1.79

Inquiry: Record: D23A
Reply text: 2.12

Inquiry: Record: D9E
Reply text: 1.81

Inquiry: Record: P3W
Reply text: 2.43

Inquiry: Record: L24T
Reply text: 2.39

Inquiry: Record: L19N
Reply text: 1.93

Inquiry: Record: T12N
Reply text: 1.89

Inquiry: Record: E18Q
Reply text: 2.06

Inquiry: Record: E16C
Reply text: 2.32

Inquiry: Record: F22K
Reply text: 2.74

Inquiry: Record: V10P
Reply text: 1.61

Inquiry: Record: Q13K
Reply text: 1.78

Inquiry: Record: L19W
Reply text: 1.96

Inquiry: Record: E16N
Reply text: 2.34
